System: L1210
Assay: cells
Type: cell-based, mouse
Settings: Table 2
ENDPOINT_NAME: pIC50
pIC50 is defined as minus the log10 of a concentration measured in mol/L.

// known answers, use as guide
{"columns": ["MOLECULE", "pIC50"],
 "data": [
  ["CCC1(NC(=O)c2ccc(OC)c(Br)c2)CC2CN(CCc3c([nH]c4ccccc34)C(C(=O)OC)(c3cc4c(cc3OC)N(C)C3C(O)(C(=O)OC)C(OC(C)=O)C5(CC)C=CCN6CCC43C65)C2)C1 (centres unmarked)", 8.29],
  ["CC[C@]1(NC(=O)c2cccc(C)c2)C[C@H]2CN(CCc3c([nH]c4ccccc34)[C@@](C(=O)OC)(c3cc4c(cc3OC)N(C)[C@H]3[C@@](O)(C(=O)OC)[C@H](OC(C)=O)[C@]5(CC)C=CCN6CC[C@]43[C@@H]65)C2)C1", 9.30],
  ["CC[C@]1(NC(=O)c2ccc(N(C)C)cc2)C[C@H]2CN(CCc3c([nH]c4ccccc34)[C@@](C(=O)OC)(c3cc4c(cc3OC)N(C)[C@H]3[C@@](O)(C(=O)OC)[C@H](OC(C)=O)[C@]5(CC)C=CCN6CC[C@]43[C@@H]65)C2)C1", 9.74],
  ["CCC1(NC(=O)c2ccc(NC(=O)OC)cc2)CC2CN(CCc3c([nH]c4ccccc34)C(C(=O)OC)(c3cc4c(cc3OC)N(C)C3C(O)(C(=O)OC)C(OC(C)=O)C5(CC)C=CCN6CCC43C65)C2)C1 (centres unmarked)", 8.82],
  ["CC[C@]1(NC(=O)c2ccc(Cl)cc2)C[C@H]2CN(CCc3c([nH]c4ccccc34)[C@@](C(=O)OC)(c3cc4c(cc3OC)N(C)[C@H]3[C@@](O)(C(=O)OC)[C@H](OC(C)=O)[C@]5(CC)C=CCN6CC[C@]43[C@@H]65)C2)C1", 8.51],
  ["CCC1(NC(=O)c2ccc(C)c(NC(=O)c3ccccc3)c2)CC2CN(CCc3c([nH]c4ccccc34)C(C(=O)OC)(c3cc4c(cc3OC)N(C)C3C(O)(C(=O)OC)C(OC(C)=O)C5(CC)C=CCN6CCC43C65)C2)C1 (centres unmarked)", 7.52],
  ["CCCc1ccc(C(=O)NC2(CC)CC3CN(CCc4c([nH]c5ccccc45)C(C(=O)OC)(c4cc5c(cc4OC)N(C)C4C(O)(C(=O)OC)C(OC(C)=O)C6(CC)C=CCN7CCC54C76)C3)C2)cc1 (centres unmarked)", 8.37],
  ["CCSc1ccc(C(=O)NC2(CC)CC3CN(CCc4c([nH]c5ccccc45)C(C(=O)OC)(c4cc5c(cc4OC)N(C)C4C(O)(C(=O)OC)C(OC(C)=O)C6(CC)C=CCN7CCC54C76)C3)C2)cc1 (centres unmarked)", 8.31],
  ["CCOc1ccc(C(=O)NC2(CC)CC3CN(CCc4c([nH]c5ccccc45)C(C(=O)OC)(c4cc5c(cc4OC)N(C)C4C(O)(C(=O)OC)C(OC(C)=O)C6(CC)C=CCN7CCC54C76)C3)C2)cc1OCC (centres unmarked)", 9.40],
  ["CC[C@]1(NC(=O)c2ccc(N)c(C)c2)C[C@H]2CN(CCc3c([nH]c4ccccc34)[C@@](C(=O)OC)(c3cc4c(cc3OC)N(C)[C@H]3[C@@](O)(C(=O)OC)[C@H](OC(C)=O)[C@]5(CC)C=CCN6CC[C@]43[C@@H]65)C2)C1", 9.22]
]}

Now take the following molecule into account.
Prompt: What value of pIC50 has been recorded for this entry: CCC1(NC(=O)c2ccc(SC(C)C)cc2)CC2CN(CCc3c([nH]c4ccccc34)C(C(=O)OC)(c3cc4c(cc3OC)N(C)C3C(O)(C(=O)OC)C(OC(C)=O)C5(CC)C=CCN6CCC43C65)C2)C1 (centres unmarked)
Completion: 8.37
